The reported numbers originate from PubChem BioAssay (NCI).

# Tested on: MALME-3M melanoma
# Assay method text: NCI-60 one-dose screen, 48 h
# Condition notes: 10 µM unless noted
This is part of a sample that, as a whole, favours compounds with a hit. Of some 83,000 tested, about 20% had one in any assay. Activity calls are given as the source filed them. How the source made its calls: active means growth percent below 10; inactive means the rest.
Your response should consist of one outcome taken from Yes = active, No = inactive

compound=O=[N+]([O-])c1ccc(-c2cc(-c3ccc(Nc4nc(Nc5ccc(Cl)cc5)nc(Nc5ccc(Cl)cc5)n4)cc3)no2)cc1 target_under_test="MALME-3M melanoma" group=No
compound="Cn1c2c(c3ccc(Cl)c(Cl)c31)C(C#N)C1(CCNCC1)NC2=O (configuration not stated)" target_under_test="MALME-3M melanoma" group=No
compound=O=c1ccn2nc3ccccc3c2[nH]1 target_under_test="MALME-3M melanoma" group=No
compound=COC(=O)/C=C1\S/C(=N\NS(=O)(=O)c2ccc(C)cc2)N(c2ccccc2)C1=O target_under_test="MALME-3M melanoma" group=No

Assay outcome for `NC(=N\N=C/c1ccccc1[N+](=O)[O-])/C(N)=N\N=C/c1ccccc1[N+](=O)[O-]` : what was it?
No

Input `COC1=CC(=O)C[C@@H](C)[C@]12Oc1c(Cl)c(OC)cc(OC)c1C2=O`
No

What do we get for `CC(C)C(=O)Nc1n[nH]c2cc(-c3cccc(NS(=O)(=O)C4CC4)c3)ccc12` ?
No

Another compound to look at: `COC(=O)CCC1=C(C)C2=NC1=CC1=NC(=CC3=NC(=Cc4[nH]c(/c(=C(/C)O)c4C)=C2)C(C(C)=O)=C3C)C(C)=C1CCC(=O)OC`
No

Same question, COc1ccc(C2=NN(C(=O)c3cc(OC)c(OC)c(OC)c3)C(c3ccc(Cl)cc3)C2)cc1OC (configuration not stated) this time
No

What about this compound? `O=C(Nc1cccc2c(O)c(N=Nc3ccc(S(=O)(=O)Nc4nccs4)cc3)cc(N=Nc3ccc(S(=O)(=O)Nc4nccs4)cc3)c12)C(Cl)Cl`
No

Now the same for `COc1cc(/C=C/C(=O)N2CCN(C(=O)c3cc(OC)c(OC)c(OC)c3)CC2)ccc1OCCCN1C(=O)c2cccc3cccc(c23)C1=O`
No

Now try `COC(=O)[C@]12CC[C@@H](C)[C@H](C)[C@@H]1C1=CC[C@@H]3[C@@]4(C)C(C=O)=C[C@@](C)(COC(=O)c5ccco5)[C@@H]4C(=O)C[C@@]3(C)[C@]1(C)CC2` .
Yes

How about `O=C(NCCc1ccc(O)c(O)c1)C12CC3CC(CC(C3)C1)C2` ?
No

// repeat for `C[n+]1cc2c3c(ccc2c2ccc4cc5c(cc4c21)OCO5)OCO3` and report
Yes

And for `O=C(Nc1cccc(C(F)(F)F)c1)Nc1cccc(C(F)(F)F)c1` ?
Yes

Let us now turn to `COc1ccc(NC(=O)CSc2nnc(-c3cc(-c4ccc(S(N)(=O)=O)cc4)nc4ccccc34)n2-c2ccccc2)cc1`
No

Ok, now `CCN1CCN(c2nc(C)cc(NCc3cc(Nc4ccnc5cc(Cl)ccc45)ccc3F)n2)CC1`
Yes

====

So I've got a bunch of compounds here, and I need their growth values.
# Test system: MDA-MB-231 breast
# Assay method text: NCI-60 one-dose screen, 48 h (100 = growth as untreated, 0 = no growth, -100 = all killed)
# Condition notes: 10 µM unless noted
About 83,000 compounds went through this panel and 20% of them were active in at least one assay; those are over-represented in the sample as a whole.
Give bare numbers, in %.

compound=C=C(C)[C@@H]1CC[C@]2(C(=O)NC3CCCCC3)CC[C@]3(C)[C@H](CC[C@@H]4[C@@]5(C)CCCNC(C)(C)[C@@H]5CC[C@]43C)[C@@H]12 target_under_test="MDA-MB-231 breast" unit_spec=% value_observed=52.7
compound="N#CC1=C(/N=C/c2ccccc2)Oc2c(ccc3ccccc23)C1c1ccccc1 (centres undefined)" target_under_test="MDA-MB-231 breast" unit_spec=% value_observed=19
compound=COc1ccc2c(c1)C(=O)/C(=C/c1ccc(OCC(=O)Nc3nccs3)cc1)O2 target_under_test="MDA-MB-231 breast" unit_spec=% value_observed=46.2

Field request: growth | item: `Cc1cc(NCc2cc(Nc3ccnc4cc(Cl)ccc34)ccc2F)nc(N2CCN(c3ccccc3)CC2)n1`
17.2
